Test system: UACC-62 melanoma
methodNotes: NCI tumour cell line growth inhibition, 48 h
Let's look at some molecules and their measured TGI.
Please respond with the number in µM and leave the unit unwritten.

C/C(Sc1ccccc1)=C1/CCCN(Cc2ccccc2)C1 : 47.6

In the following, a different molecule is considered.
Form: item CCC1(O)C(=O)OCc2c1cc1n(c2=O)Cc2c-1nc1ccccc1c2OC (centres undefined) ; test system UACC-62 melanoma; TGI: 0.413

----------
Tested on: RXF 393 renal
methodNotes: NCI tumour cell line growth inhibition, 48 h
observedProperty: TGI (µM)
Note: unit µM is implicit; provide only the numeric part.

CC(C)Cc1ccc(C(C)/C=C2\CCC(CN3CCOCC3)C2=O)cc1 (stereo not given) : 22
Cn1nc(-c2ccccc2)c(C(=O)/C=C/c2ccccc2)c(N2CCCCC2)c1=O : 73.1
O=C(/C=C/c1ccccc1O)c1ccccc1 : 23.4
COc1cc(/C=C2\N=C(c3ccccc3)N(c3nc4c(Cl)cc(Cl)cc4s3)C2=O)ccc1O : 49.1
C[C@H](Nc1ccc(C#N)n(C)c1=O)c1cc2cc(Cl)ccc2[nH]c1=O : 67.7

Record `Oc1ccc(Cl)cc1Cc1cc(Cl)cc(Cc2cc(Cl)ccc2O)c1O` ; system RXF 393 renal; TGI = 8.86
